Quick reference: OD450 of the listed items.
# EXPERIMENTAL_TARGET: T1, Peptide B (human PAR-2), N-terminal biotinylated (Human)
# T1 construct: also called Peptide B N-Term
# T1 peptide: Biotin-GGGGSSLIGKVDGTSHVTG
# METHOD_SUMMARY: peptide ELISA
Where no end group is shown, it is not given here. The star is where a group is joined. Biotin = O=C1N[C@H]2[C@H](CS[C@H]2CCCCC(=O)*)N1

These recorded examples may help you get a feel for the data.
BINDER: H1M619N (antibody, V domains shown, chimeric: human variable, mouse constant domains) VH: EVQLVESGGGLVQAGRSLRLSCAASGFTFDDYAMHWVRQAPGKGLEWVSGISWNSGSRGYADSVKGRFTISRDNAKNSLHLQMYSLRAEDTALYYCAKENWSFDYWGQGTLVTVSS VL: DIVMTQTPLSSPVTLGQPASISCRSSQSLVHSDGNTYLSWLQQRPGQPPRLLIYKISYRFSGVPDRFSGSGAGTDFTLKISRVATEDVGVYYCMQATQLPYTFGQGTKLEIK
OD450: 0 to 0.09 od
--
BINDER: H2M588N (antibody, V domains shown, chimeric: human variable, mouse constant domains) VH: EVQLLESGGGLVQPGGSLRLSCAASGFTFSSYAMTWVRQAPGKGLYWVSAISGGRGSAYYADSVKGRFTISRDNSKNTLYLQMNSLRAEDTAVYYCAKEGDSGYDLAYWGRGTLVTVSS VL: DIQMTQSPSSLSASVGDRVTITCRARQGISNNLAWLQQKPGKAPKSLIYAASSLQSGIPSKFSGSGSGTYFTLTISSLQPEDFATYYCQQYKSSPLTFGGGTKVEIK
OD450: 1 to 4 od

I am curious: what OD450 value has been reported for H2M591N (antibody, V domains shown, chimeric: human variable, mouse constant domains) VH: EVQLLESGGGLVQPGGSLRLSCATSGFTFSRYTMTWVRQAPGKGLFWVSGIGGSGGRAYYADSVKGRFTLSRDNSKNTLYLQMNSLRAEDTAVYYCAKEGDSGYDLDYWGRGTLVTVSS VL: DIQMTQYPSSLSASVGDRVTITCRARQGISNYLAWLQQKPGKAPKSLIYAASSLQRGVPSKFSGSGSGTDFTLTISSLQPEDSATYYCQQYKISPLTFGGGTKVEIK ?
1 to 4 od

Then what about the binder H2M618N (antibody, V domains shown, chimeric: human variable, mouse constant domains) VH: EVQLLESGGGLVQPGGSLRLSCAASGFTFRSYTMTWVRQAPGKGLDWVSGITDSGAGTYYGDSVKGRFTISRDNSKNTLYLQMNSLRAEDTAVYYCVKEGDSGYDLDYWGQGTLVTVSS VL: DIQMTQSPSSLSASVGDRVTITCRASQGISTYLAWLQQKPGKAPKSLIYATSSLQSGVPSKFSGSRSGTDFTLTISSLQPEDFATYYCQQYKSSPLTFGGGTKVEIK ?
1 to 4 od

Then what about the binder H1M616N (antibody, V domains shown, chimeric: human variable, mouse constant domains) VH: EVQLVESGGGLAQPGRSLRVSCSASGFNFDDYAMHWVRQAPGKGLEWVSGISWNSGSRGYADSVKGRFTISRDNAKNSLYLQMNSLRAEDTALYYCVKENWAFEYWGQGTLVTVSS VL: DIVMTQTPLSSPVTLGQPASISCRSSHSLVHSDGSTYLSWLQQRPGQPPRLLIYKISNRFSGVPDRFSGSGAGTDFTLKISRVEAEDVGLYYCMQATQFPYTFGQGTKLEIK ?
0 to 0.09 od
